Test: Acute toxicity (LD50) in rats
Conditions: rat, in vivo, iv, Female
Where a name gives a salt, the structure may show the parent alone.
MEASURED_ENDPOINT: LD50 (mg/kg)
The reply should contain only the number, in mg/kg.

[Q] Please look up its LD50: Cc1nc(NCCN2CCOCC2)c2c(n1)NC(=O)CO2 [Example 22, dihydrochloride]
[A] 232

###

Test: Acute toxicity (LD50) in mice
Settings: mouse, in vivo, iv, Male
Structures can show the parent of a compound that is named as a salt.
MEASURED_ENDPOINT: LD50 (mg/kg)
The reply should contain only the number, in mg/kg.

[Q] Please look up its LD50: Cc1nc(NCCN2CCOCC2)c2c(n1)NC(=O)CO2 [Example 22, dihydrochloride]
[A] 324
